method-summary: Metabolic stability in mouse liver microsome assessed as parent compound remaining measured at 5 mins in presence of NADPH by LC-MS/MS analysis
Format: ADME
study-conditions: liver microsomes, read-out: Stability
metric: remaining at 5 min (%)
Entry rule: numbers only, all in %.

**Q:** # query: remaining at 5 min of entry CC(C)(C)[C@H](NC(=O)c1cc2cc(C(F)(F)P(=O)(O)O)ccc2s1)C(=O)N1C[C@@H](OCCCCCC#Cc2cccc3c2CN(C2CCC(=O)NC2=O)C3=O)C[C@H]1C(=O)N1CCO[C@H](c2ccccc2)C1 (stereo partly specified)
**A:** 98

* * *

method-summary: Metabolic stability in human liver microsome assessed as parent compound remaining measured at 15 mins in presence of NADPH by LC-MS/MS analysis
Type: ADME
study-conditions: liver microsomes, read-out: Stability
metric: remaining at 0.25 h (%)
Entry rule: numbers only, all in %.

**Q:** # query: remaining at 0.25 h of entry CC(C)(C)[C@H](NC(=O)c1cc2cc(C(F)(F)P(=O)(O)O)ccc2s1)C(=O)N1C[C@@H](OCCCCCC#Cc2cccc3c2CN(C2CCC(=O)NC2=O)C3=O)C[C@H]1C(=O)N1CCO[C@H](c2ccccc2)C1 (stereo partly specified)
**A:** 98
